I'd appreciate it if you could supply pIC50 values for the items below.
molecular target: ERK2 kinase (Homo sapiens (Human)); experiment: In vitro enzyme activity assay, ERK2 kinase (Z'-LYTE); format: biochemical; settings: class symbols; read-out: ERK2 IC50
pIC50: −log10 of the molar value.

Known pIC50 results, listed for orientation:
{"molecule": "Cn1nccc1Nc1nccc(-c2cc(F)c3c(c2)CCN3C(=O)Cc2ccccc2C#N)n1", "pIC50": "7.00 to 8.00"}
{"molecule": "CC1Cc2cc(-c3ccnc(Nc4ccnn4C)n3)cc(F)c2N1C(=O)Cc1cccnc1Cl (stereo not shown)", "pIC50": "≥ 8.00"}
{"molecule": "Cn1nccc1Nc1nccc(-c2cc(F)c3c(c2)CCN3C(=O)Cc2cc(F)ccc2F)n1", "pIC50": "6.00 to 7.00"}
{"molecule": "O=C(Cc1cccnc1Cl)N1CCc2cc(-c3ccnc(NCCO)n3)cc(F)c21 [Example P2]", "pIC50": "7.00 to 8.00"}
{"molecule": "O=C(Cc1cccnc1Cl)N1CCc2cc(-c3ccnc(NC4CCOCC4)n3)cc(F)c21", "pIC50": "≥ 8.00"}
{"molecule": "Cn1nccc1Nc1nccc(-c2cc(Cl)c3c(c2)CCN3C(=O)Cc2cccnc2Cl)n1", "pIC50": "7.00 to 8.00"}

Give pIC50 for each of the items listed below.
1. Cn1nccc1Nc1cc(-c2cc(Cl)c3c(c2)CCN3C(=O)Cc2cccnc2Cl)ccn1
2. O=C(Cc1cccnc1Cl)N1CCc2cc(-c3ccnc(NC4CCOC4)n3)cc(F)c21 (stereo not shown)

## Result
1. 7.00 to 8.00
2. 7.00 to 8.00

----------
target: ERK2 kinase (Homo sapiens (Human), UniProt P28482); assay: In vitro enzyme activity assay, ERK2 kinase (Z'-LYTE); assay type: biochemical; details: read-out: IC50 against ERK2 kinase
Sequence (P28482 whole entry): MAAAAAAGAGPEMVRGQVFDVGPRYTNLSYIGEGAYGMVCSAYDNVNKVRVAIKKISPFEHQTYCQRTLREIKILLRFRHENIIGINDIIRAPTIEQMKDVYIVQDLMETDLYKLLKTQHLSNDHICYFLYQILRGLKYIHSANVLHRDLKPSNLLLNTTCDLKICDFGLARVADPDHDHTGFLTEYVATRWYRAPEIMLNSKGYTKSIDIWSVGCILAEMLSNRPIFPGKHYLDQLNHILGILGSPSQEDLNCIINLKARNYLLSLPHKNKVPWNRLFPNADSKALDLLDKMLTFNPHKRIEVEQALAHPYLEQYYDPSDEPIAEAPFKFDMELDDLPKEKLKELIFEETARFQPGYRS
reported endpoint: IC50 (nM)
Answers are plain numbers, in nM.

Some solved entries appear below for comparison.
{"compound": "C[C@H]1Cc2cc(-c3ccnc(Nc4ccnn4C)c3)cc(F)c2N1C(=O)Cc1cccnc1Cl", "unit descriptor": "nM", "IC50": 2.7}
{"compound": "Cn1nccc1Nc1cc(-c2cc(F)c3c(c2)CCN3C(=O)C(O)c2cccnc2Cl)ccn1 (stereo not drawn)", "unit descriptor": "nM", "IC50": 10}
{"compound": "CC1CN(C(=O)Cc2cccnc2Cl)c2c(F)cc(-c3ccnc(Nc4ccnn4C)c3)cc21 (stereo not drawn)", "unit descriptor": "nM", "IC50": 4.8}

For the 3 compounds below, give their IC50 values.
1. Cn1nccc1Nc1cc(-c2cc(F)c3c(c2)CCN3C(=O)Cc2cccnc2Cl)ccn1
2. Cn1nccc1Nc1nccc(-c2cc(F)c3c(c2)CCN3C(=O)Cc2ccccc2Cl)n1
3. Cn1nccc1Nc1nccc(-c2cc(F)c3c(c2)CCN3C(=O)Cc2cccnc2Cl)n1

## Result
[3.3, 3, 6.1]

----------
assay: Thermodynamic solubility assay; assay type: physicochemical; conditions: HBSS/HEPES 10 mM/BSA 0.1% pH 6.8, pH 6.8, aqueous buffer, thermodynamic from solid, 37° C., read-out: Maximum solubility in pH 6.8 HBSS/HEPES 10 mM/BSA 0.1%
reported endpoint: solubility at 24 h (µM)
Give bare numbers, in µM.

According to the records, this compound Cn1nccc1Nc1cc(-c2cc(F)c3c(c2)CCN3C(=O)Cc2cccnc2Cl)ccn1 displays solubility at 24 h of 267

----------
target: UniProtKB P28482; assay: In vitro enzyme activity assay, ERK2 kinase (Z'-LYTE); assay type: biochemical; details: class symbols; read-out: ERK2 IC50
pIC50: −log10 of the molar value.
For each record, write down the corresponding pIC50.

{"molecule": "Cc1ncccc1CC(=O)N1CCc2cc(-c3ccnc(Nc4ccnn4C)c3)cc(F)c21", "reported endpoint": "pIC50", "recorded value": "≥ 8.00"}
{"molecule": "Cn1nccc1Nc1nccc(-c2cc(F)c3c(c2)CCN3C(=O)Cc2ccc(F)cc2Cl)n1", "reported endpoint": "pIC50", "recorded value": "7.00 to 8.00"}
{"molecule": "Cn1nccc1Nc1nccc(-c2cc(F)c3c(c2F)CCN3C(=O)Cc2cccnc2Cl)n1", "reported endpoint": "pIC50", "recorded value": "6.00 to 7.00"}

Now look at this one.
Entry CC(CCO)Nc1nccc(-c2cc(F)c3c(c2)CCN3C(=O)Cc2cccnc2Cl)n1 (stereo not shown) ; assay system UniProtKB P28482; pIC50 recorded at 7.00 to 8.00

----------
assay: Permeability study, Caco-2 cell in vitro drug absorption model; assay type: in vitro ADME; details: human, Papp, Apical to Basal, 20 μm, 1.5 h, read-out: apparent permeability coefficient (Caco-2) From A to B
reported endpoint: Papp A→B at 1.5 h, 20 μm (×10⁻⁶ cm/s)
Answers are plain numbers, in ×10⁻⁶ cm/s.

Record Cn1nccc1Nc1cc(-c2cc(F)c3c(c2)CCN3C(=O)Cc2cccnc2Cl)ccn1 [Example P9] . Reported Papp A→B at 1.5 h, 20 μm: 23.7

----------
assay: Thermodynamic solubility assay; type: physicochemical; settings: PBS (DPBS) pH 2.0, pH 2, aqueous buffer, thermodynamic from solid, 37° C., read-out: Maximum solubility in pH 2.0 PBS
reported endpoint: solubility at 24 h (µM)
Numbers only, in µM.

Cn1nccc1Nc1cc(-c2cc(F)c3c(c2)CCN3C(=O)Cc2cccnc2Cl)ccn1 yielded solubility at 24 h of 2850

----------
experiment: Thermodynamic solubility assay; type: physicochemical; conditions: PBS buffer, pH 7.4, aqueous buffer, thermodynamic from solid, 37° C., read-out: Maximum solubility in pH 7.4 PBS
reported endpoint: solubility at 24 h

Lookup result for Cn1nccc1Nc1cc(-c2cc(F)c3c(c2)CCN3C(=O)Cc2cccnc2Cl)ccn1 ; measured solubility at 24 h: 544 µM

----------
assay: Permeability study, Caco-2 cell in vitro drug absorption model; format: in vitro ADME; conditions: human
reported endpoint: efflux ratio at 1.5 h, 20 μm
Give bare numbers.

Record summary for Cn1nccc1Nc1cc(-c2cc(F)c3c(c2)CCN3C(=O)Cc2cccnc2Cl)ccn1 : reported efflux ratio at 1.5 h, 20 μm = 1.3

----------
molecular target: ERK2 kinase (Homo sapiens (Human), UniProt P28482); experiment: In vitro enzyme activity assay, ERK2 kinase (Z'-LYTE); assay type: biochemical; conditions: class symbols; read-out: ERK2 IC50
pIC50: −log10 of the molar value.
reported endpoint: pIC50

See these solved cases before continuing.
{"molecule": "Cn1nccc1Nc1nccc(-c2cc(F)c3c(c2)CCN3C(=O)Cc2c(F)ccnc2Cl)n1", "reported endpoint": "pIC50", "recorded value": "7.00 to 8.00"}
{"molecule": "O=C(Cc1cccnc1Cl)N1CCc2cc(-c3ccnc(NC4CCC(O)C4)n3)cc(F)c21 (stereo not shown)", "reported endpoint": "pIC50", "recorded value": "7.00 to 8.00"}
{"molecule": "Cn1nccc1Nc1cc(-c2cc(F)c3c(c2)CCN3C(=O)Cc2cccnc2Cl)ccn1", "reported endpoint": "pIC50", "recorded value": "≥ 8.00"}
{"molecule": "COCC1Cc2cc(-c3nc(Nc4ccnn4C)ncc3C)cc(F)c2N1C(=O)Cc1cccnc1Cl (stereo not shown)", "reported endpoint": "pIC50", "recorded value": "≥ 8.00"}

Hi! Can you tell me pIC50 for each of these molecules?
1. O=C(Cc1cccnc1Cl)N1CCc2cc(-c3ccnc(N[C@H]4C[C@@H](O)C4)c3)cc(F)c21
2. Cn1nccc1Nc1nccc(-c2cc(F)c3c(c2)CCN3C(=O)Cc2cc(Cl)ccc2F)n1

## Result
1: 7.00 to 8.00; 2: 7.00 to 8.00

----------
molecular target: ERK2 kinase (Homo sapiens (Human), UniProt P28482); assay: In vitro enzyme activity assay, ERK2 kinase (Z'-LYTE); type: biochemical; details: class symbols; read-out: ERK2 IC50
pIC50: −log10 of the molar value.
Answer each item with its documented pIC50.

Below are worked cases with known answers.
{"molecule": "O=C(Cc1cccnc1Cl)N1CCc2cc(-c3ccnc(NC4CC4)c3)cc(F)c21 [Example P61]", "reported endpoint": "pIC50", "recorded value": "7.00 to 8.00"}
{"molecule": "Cn1nccc1Nc1nccc(-c2cc(F)c3c(c2)CCN3C(=O)Cc2cccnc2Cl)n1 [Example P10]", "reported endpoint": "pIC50", "recorded value": "≥ 8.00"}
{"molecule": "Cn1nccc1Nc1nccc(-c2cc(F)c3c(c2)CCN3C(=O)Cc2ccccc2F)n1 [Example P17]", "reported endpoint": "pIC50", "recorded value": "7.00 to 8.00"}
{"molecule": "CC(CO)Nc1nccc(-c2cc(F)c3c(c2)CCN3C(=O)Cc2cccnc2Cl)n1 (centres unmarked) [Example P1]", "reported endpoint": "pIC50", "recorded value": "6.00 to 7.00"}
{"molecule": "Cn1nccc1Nc1cc(-c2cc(F)c3c(c2)CCN3C(=O)Cc2cccnc2C2CCOCC2)ccn1 [Example P57]", "reported endpoint": "pIC50", "recorded value": "6.00 to 7.00"}

Return reported pIC50 values for all items listed beneath this line.
1. [2H]C([2H])([2H])n1nccc1Nc1cc(-c2cc(F)c3c(c2)CCN3C(=O)Cc2cccnc2Cl)ccn1 [Example P46]
2. Cn1nccc1Nc1cc(-c2cc(F)c3c(c2)CCN3C(=O)Cc2cccnc2Cl)ncn1 [Example P44]

## Result
≥ 8.00
7.00 to 8.00

Observed pIC50, ERK2 kinase (Homo sapiens (Human), UniProt P28482), Cn1nccc1Nc1nccc(-c2cc(F)c3c(c2)CCN3C(=O)Cc2ccc(F)cc2F)n1 [Example P12] : 7.00 to 8.00
